- System: Hs-578-T
- assayName: Anti-proliferation assay (ATPLite), Chalice synergy score
- Assay type: cell-based
- conditionDetails: Compound 1 in combination with second active agent, mean self-cross + 2σ threshold 4.09
Please provide measured Synergy score for the entries that follow.
// return just the number, without any unit appended

Prompt: For the compound N#Cc1c(O)c2c(-c3ccc(-c4ccccc4O)cc3)csc2[nH]c1=O [Compound A769662] , report Synergy score.
Completion: 0.39

Prompt: Using the record for Oc1c2ccccc2c2c3c(cccc13)N=N2 [SP 600125] , state its measured Synergy score.
Completion: 0.97

Prompt: Kindly indicate its recorded Synergy score. Item: NS(=O)(=O)OC[C@@H]1C[C@@H](n2ccc3c(N[C@H]4CCc5ccccc54)ncnc32)C[C@@H]1O [MLN-4924]
Completion: 3.55

Prompt: Give Synergy score for the following compound: COCCn1c2c([n+](Cc3cnccn3)c1C)C(=O)c1ccccc1C2=O [YM155]
Completion: 3.36

Prompt: Return reported Synergy score. Input compound: C[C@]1(c2nc3c(C(N)=O)cccc3[nH]2)CCCN1 [ABT-888]
Completion: 0.42
